- System: methionine N^α -acetyltransferase from S. cerevisiae
- protocol_description: Effect of protein modification reagents on enzyme activity
- Assay type: biochemical, Saccharomyces cerevisiae
- condition_context: reagent 1.0 mM; 30° C. 15 min, then dialyzed; substrate PAI (N=3)
- Method: N^α -acetyltransferase activity was determined as previously described [Lee et al., J. Biol. Chem. 263:14948-14955 (1988)]. […] The partially dried membranes were placed in scintillation cocktail and counted with a Beckman LS 3801 scintillation counter. […]
metric_name: Enzyme Activity (%)
Write the number in % without appending the unit.

Request: Let me know recorded Enzyme Activity (%) for CC(=O)n1ccnc1 [N-acetylimidazole] , thanks.
Response: 100

Request: State its Enzyme Activity (%) for this compound: O=C(O)c1cc[c]([Hg][Cl])cc1 [pCMB, p-chloromercuribenzoate]
Response: 94

Request: Note Enzyme Activity (%) for the compound shown: C[S+](C)Cc1cc([N+](=O)[O-])ccc1O.[Br-] [HNBS(CH3)2 -Br]
Response: 93

Request: Return the recorded Enzyme Activity (%) value; entry: NC(=O)CI [IAM, iodoacetamide]
Response: 100

====

- experimental_target: AAA1 N^α -acetyltransferase (N^α -AT) (Saccharomyces cerevisiae, UniProt P07347+P12945)
- Sequence (P12945 2-854 limits assumed): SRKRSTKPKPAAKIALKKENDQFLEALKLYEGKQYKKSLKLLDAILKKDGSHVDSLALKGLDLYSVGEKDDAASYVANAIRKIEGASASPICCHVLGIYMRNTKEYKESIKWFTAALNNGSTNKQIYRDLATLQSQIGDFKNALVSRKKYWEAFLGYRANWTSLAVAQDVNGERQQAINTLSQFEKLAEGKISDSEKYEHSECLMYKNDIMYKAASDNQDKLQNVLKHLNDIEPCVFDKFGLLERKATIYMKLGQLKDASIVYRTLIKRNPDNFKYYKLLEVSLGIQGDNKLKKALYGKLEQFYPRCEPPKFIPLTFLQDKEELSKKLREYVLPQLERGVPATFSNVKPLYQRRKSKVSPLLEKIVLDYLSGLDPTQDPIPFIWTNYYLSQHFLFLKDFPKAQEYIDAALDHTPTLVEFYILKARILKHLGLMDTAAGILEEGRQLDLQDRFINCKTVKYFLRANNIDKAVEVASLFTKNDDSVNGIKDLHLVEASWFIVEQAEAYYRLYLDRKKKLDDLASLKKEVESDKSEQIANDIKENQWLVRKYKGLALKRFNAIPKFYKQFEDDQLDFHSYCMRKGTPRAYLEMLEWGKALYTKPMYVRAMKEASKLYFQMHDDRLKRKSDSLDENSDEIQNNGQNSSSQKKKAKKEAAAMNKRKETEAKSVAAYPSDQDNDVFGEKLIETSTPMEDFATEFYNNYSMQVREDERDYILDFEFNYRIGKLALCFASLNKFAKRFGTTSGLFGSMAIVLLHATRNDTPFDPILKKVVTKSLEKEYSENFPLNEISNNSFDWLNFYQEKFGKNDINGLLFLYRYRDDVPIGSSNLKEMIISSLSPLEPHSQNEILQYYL
- Sequence (P07347 1-238): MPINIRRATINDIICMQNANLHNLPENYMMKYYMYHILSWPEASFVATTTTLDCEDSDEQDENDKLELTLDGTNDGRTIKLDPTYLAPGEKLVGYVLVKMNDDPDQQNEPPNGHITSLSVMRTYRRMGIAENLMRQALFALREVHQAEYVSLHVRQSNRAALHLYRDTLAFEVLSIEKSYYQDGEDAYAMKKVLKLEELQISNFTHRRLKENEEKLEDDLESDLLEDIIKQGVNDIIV
- protocol_description: Relative activity of N^α -AT for N^α -acetylation of synthetic peptides
- Type: biochemical
- condition_context: Table 7, influence of the penultimate amino terminal residue
metric_name: Activity (%) (mean activity ± S.D.) N^a -AT
Numeric only. Scale: %

Request: Name the recorded Activity (%) (mean activity ± S.D.) N^a -AT of the substance listed here: SRPETQKGVIFYESHGKLEYKDIP (SRPETQKGVIFYESHGKLEYKDIP)
Response: 102

Request: State, in one line, measured Activity (%) (mean activity ± S.D.) N^a -AT of SFPETQKGVIFYESHGKLEYKDIP (SFPETQKGVIFYESHGKLEYKDIP)
Response: 118

Request: Quote Activity (%) (mean activity ± S.D.) N^a -AT reported for SDPETQKGVIFYESHGKLEYKDIP (SDPETQKGVIFYESHGKLEYKDIP) please.
Response: 171

Request: Indicate the recorded Activity (%) (mean activity ± S.D.) N^a -AT value for this substance: STPETQKGVIFYESHGKLEYKDIP (STPETQKGVIFYESHGKLEYKDIP)
Response: 144

Request: Tell us which Activity (%) (mean activity ± S.D.) N^a -AT value is on record for SNPETQKGVIFYESHGKLEYKDIP (SNPETQKGVIFYESHGKLEYKDIP)
Response: 116

Request: // Input: SGPETQKGVIFYESHGKLEYKDIP (SGPETQKGVIFYESHGKLEYKDIP) . Output its Activity (%) (mean activity ± S.D.) N^a -AT only.
Response: 84

Request: Tell us which Activity (%) (mean activity ± S.D.) N^a -AT value is on record for SVPETQKGVIFYESHGKLEYKDIP (SVPETQKGVIFYESHGKLEYKDIP)
Response: 123

Request: # return recorded Activity (%) (mean activity ± S.D.) N^a -AT for input SEPETQKGVIFYESHGKLEYKDIP (SEPETQKGVIFYESHGKLEYKDIP)
Response: 121

====

- Tested on: methionine N^α -acetyltransferase from S. cerevisiae
- Type: biochemical, Saccharomyces cerevisiae
- condition_context: salt 1 mM; 5 min room temperature, 50 mM HEPES pH 7.4, 1 mM DTT; substrate PAI (N=3)
metric_name: Enzyme Activity (%)
Returns: string containing the number followed by the unit.

Request: Report Enzyme Activity (%) under test system methionine N^α -acetyltransferase from S. cerevisiae for [Cl][Mn][Cl] .
Response: 98%

Request: Determine reported Enzyme Activity (%) for O=S(=O)([O-])[O-].[Zn+2] ; test system: methionine N^α -acetyltransferase from S. cerevisiae.
Response: 0%

Request: Give Enzyme Activity (%) only, for [Cl][Cd][Cl] , using methionine N^α -acetyltransferase from S. cerevisiae data.
Response: 0%

Request: Identify measured Enzyme Activity (%) obtained with methionine N^α -acetyltransferase from S. cerevisiae for [Ca+2].[Cl-].[Cl-] .
Response: 102%

Request: For methionine N^α -acetyltransferase from S. cerevisiae, give the measured Enzyme Activity (%) of the entry O=S(=O)([O-])[O-].[Cu+2]
Response: 0%

Request: Return reported Enzyme Activity (%) for target or system methionine N^α -acetyltransferase from S. cerevisiae, item [Cl-].[Cl-].[Mg+2] .
Response: 98%

Request: Answer briefly: Enzyme Activity (%) recorded on methionine N^α -acetyltransferase from S. cerevisiae for O=S(=O)([O-])[O-].[Fe+2]
Response: 40%

Request: Return reported Enzyme Activity (%) for target or system methionine N^α -acetyltransferase from S. cerevisiae, item [Cl-].[Cl-].[Co+2] .
Response: 38%

Request: Output reported Enzyme Activity (%) of the compound O=S(=O)([O-])[O-].[Mg+2] on methionine N^α -acetyltransferase from S. cerevisiae.
Response: 97%

Ref: patent US5223421A
